- test description: KARI assay of purified S. exigua KARI and variants with NADH (Examples 6-9)
- Format: biochemical
- settings: cofactor NADH
measured parameter: U/mg NADH (specific activity) (U/mg)
# number only, unit U/mg dropped from output

- molecule: "Se1_KARI^1A8: S. exigua KARI variant G60V, I95V, V99L (protein, UniProt D0WGK0 1-342, looked up, variant G60V I95V V99L) Ketol-acid reductoisomerase …: MSVKTKEKEMAVTILYEQDVDPKVIQGLKVGIIGYGSQGHAHALNLMDSGVDVRVGLREVSSSWKTAEEAGLKVTDMDTAAEEADVIMVLVPDEVQPKLYQEHIAAHLKAGNTLAFAHGFNIHYGYIVPPEDVNVIMCAPKGPGHIVRRQFTEGSGVPDLACVQQDATGNAWDIVLSYCWGVGGARSGIIKATFAEETEEDLFGEQAVLCGGLVELVKAGFETLTEAGYPPELAYFECYHEMKMIVDLMYESGIHFMNYSISNTAEYGEYYAGPKVINEQSREAMKEILKRIQDGSFAQEFVDDCNNGHKRLLEQREAINTHPIETTGAQIRSMFSWIKKED"
  U/mg NADH (specific activity) / U/mg: 0.26

Enquiry: Endpoint output: U/mg NADH (specific activity) of Se1_KARI^JB7-his6: S. exigua KARI variant S63Q (protein, UniProt D0WGK0 1-342, looked up, variant S63Q, His6 tag, S. exigua KARI variant S63Q) Ketol-acid reductoisomerase …: MSVKTKEKEMAVTILYEQDVDPKVIQGLKVGIIGYGSQGHAHALNLMDSGVDVRVGLREGSSQWKTAEEAGLKVTDMDTAAEEADVIMVLVPDEIQPKVYQEHIAAHLKAGNTLAFAHGFNIHYGYIVPPEDVNVIMCAPKGPGHIVRRQFTEGSGVPDLACVQQDATGNAWDIVLSYCWGVGGARSGIIKATFAEETEEDLFGEQAVLCGGLVELVKAGFETLTEAGYPPELAYFECYHEMKMIVDLMYESGIHFMNYSISNTAEYGEYYAGPKVINEQSREAMKEILKRIQDGSFAQEFVDDCNNGHKRLLEQREAINTHPIETTGAQIRSMFSWIKKED . Value?
Return: 0.28

Enquiry: Endpoint output: U/mg NADH (specific activity) of Se1_KARI^EE1-his6: S. exigua KARI variant L57R (protein, UniProt D0WGK0 1-342, looked up, variant L57R, His6 tag, S. exigua KARI variant L57R) Ketol-acid reductoisomerase …: MSVKTKEKEMAVTILYEQDVDPKVIQGLKVGIIGYGSQGHAHALNLMDSGVDVRVGRREGSSSWKTAEEAGLKVTDMDTAAEEADVIMVLVPDEIQPKVYQEHIAAHLKAGNTLAFAHGFNIHYGYIVPPEDVNVIMCAPKGPGHIVRRQFTEGSGVPDLACVQQDATGNAWDIVLSYCWGVGGARSGIIKATFAEETEEDLFGEQAVLCGGLVELVKAGFETLTEAGYPPELAYFECYHEMKMIVDLMYESGIHFMNYSISNTAEYGEYYAGPKVINEQSREAMKEILKRIQDGSFAQEFVDDCNNGHKRLLEQREAINTHPIETTGAQIRSMFSWIKKED . Value?
Return: 0.06

Reference source for all entries: patent US20140295512A1
